Assay Comment: in vitro
Experimental Parameters: human, hela cells, % viability
Define the label as True when viability at 28.5 h, 10 µM is strictly less than 90% and as False in all remaining cases.

compound=Cc1cc(=O)oc(-c2ccccc2)c1C#N cat=False
compound=CC(=O)Cn1c(CN2CCOCC2)nc2c1c(=O)n(C)c(=O)n2C cat=False
compound=CN1CCN(C(=O)c2cc(Br)cnc2NCc2cccnc2)CC1 cat=True
compound=O=C(Nc1ccc2c(c1)OCO2)c1cccc(I)c1 cat=True

Lab log: compare recorded viability at 28.5 h, 10 µM with 90%; is it strictly lower for O=C(C1CC1)N1CC2CN(Cc3ccccc3)CC2C12CCOCC2 (stereo not shown) ?
False

API: query returns whether the compound falls strictly under 90% in viability at 28.5 h, 10 µM. Query: COc1ccc(NC2=CC(=O)CC(c3ccc(C)cc3)C2)c(OC)c1 (stereo not shown)
False

Does the reported viability at 28.5 h, 10 µM of COc1ccc2[nH]c3c(c2c1)CCN(C(C)=O)C31CCNCC1 stay below 90%?
True

Does O=C(CN1C(=O)c2ccccc2C1=O)Nc1ccccc1C(=O)N1CCN(c2ccccc2)CC1 have viability at 28.5 h, 10 µM strictly under 90%?
False

Hello, I'm reviewing records and need to know if viability at 28.5 h, 10 µM of O=C(O)CCNS(=O)(=O)c1ccc(Cl)c(Cl)c1 is below 90%. Could you check?
False

Hello, I'm reviewing records and need to know if viability at 28.5 h, 10 µM of COCc1ccc(C(=O)N2CCC(c3cc4cnccc4[nH]3)CC2)cc1 is below 90%. Could you check?
False

Field: below-cutoff. Rule: recorded viability at 28.5 h, 10 µM strictly less than 90%. Subject: CC(C(=O)Nc1ccc(S(N)(=O)=O)cc1)N1CCCc2ccccc21 (stereo not shown)
False

I'd appreciate it if you could check whether COc1ccc(C(=O)C2=C(O)C(=O)N(CCCO)C2c2ccc(Br)cc2)cc1 (stereo not shown) has viability at 28.5 h, 10 µM smaller than 90%.
False

Report whether reported viability at 28.5 h, 10 µM is lower than 90% (strictly) for N#Cc1ccc(C(=O)N2C[C@@H]3C[C@H](C2)c2c(-c4cccc(C#N)c4)ccc(=O)n2C3)cc1
False

Please determine if Cc1ccc(-c2noc(CN(C(=O)c3ccc(Br)o3)C(C)C)n2)cc1 is below 90% in terms of viability at 28.5 h, 10 µM.
True

Does the reported viability at 28.5 h, 10 µM of O=S(=O)(c1ccc(C(F)(F)F)cc1Cl)N1CCCN(Cc2cccc3c2OCO3)CC1 stay below 90%?
False

###

Assay Comment: in vitro
Experimental Parameters: human, hela cells, % viability
Lab note - cut at 90% for viability at 28.5 h, 10 µM: true if strictly below, false if not.

Some solved entries appear below for comparison.
molecule="CN(C)S(=O)(=O)N(CC(=O)NCC1CCCO1)c1ccccc1 (stereo not shown)" cat=false
molecule=CN(CC(=O)Nc1ccccc1-c1ccccc1)S(=O)(=O)c1ccc2ccccc2c1 cat=false
molecule=Oc1ccc2ccccc2c1/C=N/Nc1nc(NCc2ccccc2)nc(N2CCOCC2)n1 cat=false
molecule=Cc1ccc(C(=O)NCCN2CCC(O)(c3ccc(F)cc3)CC2)o1 cat=true
molecule=O=c1[nH][nH]c2nc(O)cc(C(F)(F)F)c12 cat=false

Kindly review the next molecule as well.
Here's an entry: CC(C)(C)c1cc(C(=O)Cn2c(=N)n(Cc3ccccc3)c3ccccc32)cc(C(C)(C)C)c1O [CBK262480B] . Is its viability at 28.5 h, 10 µM below 90%?
false

###

Measured viability at 28.5 h, 10 µM, listed per entry.
Assay Comment: in vitro
Experimental Parameters: human, hela cells, % viability
State just the number; it will be interpreted in %.

compound="CCCCOc1ccc(-c2nnn(C(C)C(=O)O)n2)cc1 (stereo not shown)" value_observed=103
compound=N#C/C(=C\c1cn(-c2ccccc2)nc1-c1cccc(S(=O)(=O)N2CCOCC2)c1)c1nc2ccccc2c(=O)[nH]1 value_observed=98.1
compound=Oc1ccccc1CNC1(Cc2cc(-c3ccc(F)cc3)on2)COC1 value_observed=95.8
compound=CN(CC(=O)O)C(=O)c1ccc(S(=O)(=O)N2CCCC2)cc1 value_observed=91.8
compound=Cc1ccccc1C(=O)NCC(=O)Nc1ccc2cc(Br)cnc2n1 value_observed=96.5

Query Cc1ccc(C)c(Sc2ccc(S(=O)(=O)Nc3ccc(C(=O)O)cc3)cc2)c1 yields viability at 28.5 h, 10 µM of 109

Noted for O=C(NCCc1c[nH]cn1)N1CCN(c2ccc(F)cc2)CC1 : its viability at 28.5 h, 10 µM reads 85.1

Entry CCC(NC(=O)Nc1cc(N2CCOCC2)ccc1Cl)c1nc(C)no1 (stereo not shown) — recorded viability at 28.5 h, 10 µM = 87.9

Just so you know, measured viability at 28.5 h, 10 µM for Cc1cc(N2CCCC(C(=O)N3CCOCC3)C2)nc(N)n1 (stereo not shown) came out at 76.4

# viability at 28.5 h, 10 µM of CS(=O)(=O)Nc1cc2cccnc2c(-c2ccccc2)n1 = 95.5

Item: CN(C)CC(=O)N1CCN(c2cncc(-c3ccc(O)cc3)n2)CC1 [CBK126921T] | viability at 28.5 h, 10 µM: 97.2

Quick note, viability at 28.5 h, 10 µM for Cc1cc(/C=C2/C(=N)N3N=C(Cc4ccccc4)SC3=NC2=O)c(C)n1-c1ccccc1 landed at 100

The recorded viability at 28.5 h, 10 µM for CCN(CC)CCNc1ncnc(N)c1[N+](=O)[O-] is 82.8

###

Listed here are compounds together with their documented viability at 28.5 h, 10 µM.
Assay Comment: in vitro
Experimental Parameters: human, hela cells, % viability
Record the value in %, omitting the unit from your answer.

Solved cases below.
compound="CCCOC(=O)Cn1cnc2sc(C)c(C)c2c1=O [CBK304371]" unit_string=% value_observed=88.9
compound="O=C(O)C(Cc1ccccc1)N1C(=O)/C(=C/C=C/c2ccccc2)SC1=S (centres unmarked) [CBK263496]" unit_string=% value_observed=99.6
compound="CC1COCC(C)N1c1ccc2nnc(-c3ccc(C(F)(F)F)cc3)n2n1 (centres unmarked) [CBK009548]" unit_string=% value_observed=81.7
compound="CC(=O)[C@H]1C[C@@H](CC(=O)Nc2ccc(Cl)nc2)C1(C)C [CBK091338]" unit_string=% value_observed=97.7

Lab book: viability at 28.5 h, 10 µM of CC1CCCCN1C(=O)Cn1c(C2CCOCC2)cc2cccnc21 (centres unmarked) [CBK284675] noted as 97.7

###

Assay Comment: in vitro
Experimental Parameters: human, hela cells, % viability
Recorded viability at 28.5 h, 10 µM by entry
Return type: number; implicit unit %.

compound=O=C(CSc1nc2ccccc2[nH]1)c1ccc2ccccc2c1 value_observed=104

// viability at 28.5 h, 10 µM lookup, compound = Cc1nc2cc(C(=O)N3CCC(c4ccccc4)C3)ccc2n1C (stereo not shown) , result: 66.5

# viability at 28.5 h, 10 µM of Cc1ccc(CN(C)CC(=O)Nc2cc(C(F)(F)F)ccc2Cl)o1 = 90.4

# viability at 28.5 h, 10 µM of O=C(c1cc(C2CCCN(Cc3ccccc3)C2)no1)N1CCCC1 (stereo not shown) = 89.7

Form field viability at 28.5 h, 10 µM, entry Cc1ccc(-n2c(C)c([N+](=O)[O-])c3ccc(O)cc32)cc1 : 86.2

Measured viability at 28.5 h, 10 µM, COCCN1CCC2(C/C=C/C[C@H]3COCC[C@H]3NC(=O)CNC2=O)CC1 : 116

The measured viability at 28.5 h, 10 µM associated with CCc1c(C)nc2ccccc2c1SCCOC(=O)Nc1cccc([N+](=O)[O-])c1 [CBK155545T] reads 106

For Cc1cc(C)n(C2CCN(Cc3c(C)nc4ccccn34)CC2)n1 the compound record lists viability at 28.5 h, 10 µM as 83.4

What the record says about CCc1noc(C)c1C(=O)N1CCN(C2CCCC2O)CC1 (stereo not shown) : viability at 28.5 h, 10 µM is 78

Entry under test: O=S(=O)(Nc1cccc2[nH]ccc12)c1ccc(F)cc1F . Its viability at 28.5 h, 10 µM was 62.2

###

Each entry below carries its recorded viability at 28.5 h, 10 µM.
Assay Comment: in vitro
Experimental Parameters: human, hela cells, % viability
Hi! Could you send only the number? It should be in %, unit omitted.

Take a look at these entries with their results.
molecule=COc1cc(OC)cc(C(=O)Nc2ccc(C(=O)c3ccccc3)cc2)c1 value_observed=106
molecule=Nc1ncc(-c2ccccc2)nc1-c1ccc(O)cc1 value_observed=96.7
molecule=O=[N+]([O-])c1ccc(/C=N/c2ccc(Cc3ccc(/N=C/c4ccc([N+](=O)[O-])s4)cc3)cc2)s1 value_observed=98.3
molecule=Cc1ccc(-c2cncc(N3CCN(CCO)CC3)n2)cc1C value_observed=102
molecule=O=C(c1cnccc1C(F)(F)F)N1Cc2ccccc2C1 value_observed=105
molecule="CCn1cc(CN2C3CCC2CC(O)(c2ccccc2F)C3)cn1 (stereo not drawn)" value_observed=86.5
molecule=Cc1ccc(CCC(=O)Nc2ccc(S(N)(=O)=O)cc2)o1 value_observed=99.9
molecule=O=C(CN1C(=O)c2ccccc2C1=O)Nc1ccc(S(=O)(=O)N2CCCCCC2)cc1 value_observed=91.7

// switching to the query molecule
Please fill in: viability at 28.5 h, 10 µM reported for CC(C)(C)NC(=O)CSc1nnc(Cc2cccc3ccccc23)n1-c1ccccc1 = 118
